# Species: Rattus norvegicus
# assayNotes: Open TG-GATES - Regimen: Single
# Assay type: toxicity, organism-based, Sprague-Dawley
# Design: regimen Single, gender Male, age 6 weeks
# conditionNotes: in vivo, po, 0 mg/kg, 24 h, tissue Blood, route gavage, dose level Control
# label = met if WBC < 100 x10_2/uL else not met

molecule	assignedCategory
O=NN1CCOCC1	met
CC(C)N(CCC(C(N)=O)(c1ccccc1)c1ccccn1)C(C)C (stereo unspecified) [DISOPYRAMIDE]	met
CC[C@H]1[C@@H]2C[C@H]3[C@@H]4N(C)c5ccccc5[C@]45C[C@@H]([C@@H]2[C@H]5O)N3[C@@H]1O	not met
CC1=C(CC(=O)O)c2cc(F)ccc2/C1=C\c1ccc([S+](C)[O-])cc1 (stereo unspecified)	met

Take the molecule ClC(Cl)(Cl)Cl [CARBON TETRACHLORIDE] and say whether its WBC is less than 100 x10_2/uL.
not met

Take the molecule CN(C)CCC=C1c2ccccc2COc2ccccc21 [DOXEPIN] and say whether its WBC is less than 100 x10_2/uL.
met

Take the molecule `CCc1oc2ccccc2c1C(=O)c1cc(Br)c(O)c(Br)c1` and say whether its WBC is less than 100 x10_2/uL.
not met

Take the molecule `O=NN(CCCl)C(=O)NC1CCCCC1` and say whether its WBC is less than 100 x10_2/uL.
not met

Take the molecule OCCOCCN1CCN(C(c2ccccc2)c2ccc(Cl)cc2)CC1 (stereo unspecified) [HYDROXYZINE] and say whether its WBC is less than 100 x10_2/uL.
met

* * *

# Species: Rattus norvegicus
# assayNotes: Open TG-GATES - Regimen: Daily Repeat
# Format: toxicity, organism-based, Sprague-Dawley
# Parameters: regimen Daily Repeat, gender Male, age 6 weeks
# conditionNotes: in vivo, po, 0 mg/kg, 72 h, tissue Plasma, route gavage, dose level Control, time 3 day
The reader will find reported DBIL values listed item by item below.
Answer with the number, then the unit.

Below, each entry is followed by its recorded DBIL result.
molecule	reportedMetric	experimentalResult
CC[C@H]1[C@@H]2C[C@H]3[C@@H]4N(C)c5ccccc5[C@]45C[C@@H]([C@@H]2[C@H]5O)N3[C@@H]1O	DBIL	0.008 mg/dL
CCCCc1oc2ccccc2c1C(=O)c1cc(I)c(OCCN(CC)CC)c(I)c1	DBIL	0.096 mg/dL
CCC1(c2ccccc2)C(=O)NC(=O)NC1=O	DBIL	0.01 mg/dL

The value of DBIL measured for the molecule CC(C)N(CCC(C(N)=O)(c1ccccc1)c1ccccn1)C(C)C (centres undefined) [DISOPYRAMIDE] turned out to be 0 mg/dL

* * *

The reader will find reported ALP values listed item by item below.
# Species on record: Rattus norvegicus
# assayNotes: Open TG-GATES - Regimen: Daily Repeat
# Format: toxicity, organism-based, Sprague-Dawley
# Set-up: regimen Daily Repeat, gender Male, age 6 weeks
# conditionNotes: in vivo, po, 0 mg/kg, 72 h, tissue Plasma, route gavage, dose level Control, time 3 day
The figure you give is taken to be in IU/L; do not add the unit.

Below, each entry is followed by its recorded ALP result.
compound	ALP, IU/L
CN(C)CCC=C1c2ccccc2COc2ccccc21 [DOXEPIN]	1760.6
CN(C)C(=N)N=C(N)N	1345.6
CCc1oc2ccccc2c1C(=O)c1cc(Br)c(O)c(Br)c1	921.2
CC(C)N(CCC(C(N)=O)(c1ccccc1)c1ccccn1)C(C)C (stereo unspecified) [DISOPYRAMIDE]	1742
ClC(Cl)(Cl)Cl [CARBON TETRACHLORIDE]	1075.2

Moving on to another compound below.
The value of ALP measured for the compound `CCCCc1oc2ccccc2c1C(=O)c1cc(I)c(OCCN(CC)CC)c(I)c1` turned out to be 985.8

* * *

# Species on record: Rattus norvegicus
# assayNotes: Open TG-GATES - Regimen: Single
# Format: toxicity, organism-based, Sprague-Dawley
# Parameters: regimen Single, gender Male, age 6 weeks
# conditionNotes: in vivo, po, 0 mg/kg, 3 h, tissue Blood, route gavage, dose level Control
The reader will find reported MCHC values listed item by item below.
The figure you give is taken to be in %; do not add the unit.

Below, each entry is followed by its recorded MCHC result.
compound	MCHC [%]
ClC(Cl)(Cl)Cl [CARBON TETRACHLORIDE]	34.8
CCC1(c2ccccc2)C(=O)NC(=O)NC1=O	36.1
OCCOCCN1CCN(C(c2ccccc2)c2ccc(Cl)cc2)CC1 (stereo unspecified) [HYDROXYZINE]	32.3
CCc1oc2ccccc2c1C(=O)c1cc(Br)c(O)c(Br)c1	33.8
CN(C)CCC=C1c2ccccc2COc2ccccc21 [DOXEPIN]	32.9

Moving on to another compound below.
The value of MCHC measured for the compound `CN(C)C(=N)N=C(N)N` turned out to be 33

* * *

The reader will find reported Ht values listed item by item below.
# Species: Rattus norvegicus
# assayNotes: Open TG-GATES - Regimen: Single
# Format: toxicity, organism-based, Sprague-Dawley
# Set-up: regimen Single, gender Male, age 6 weeks
# conditionNotes: in vivo, po, 0 mg/kg, 3 h, tissue Blood, route gavage, dose level Control
The figure you give is taken to be in %; do not add the unit.

Below, each entry is followed by its recorded Ht result.
molecule	reportedMetric	experimentalResult
O=NN(CCCl)C(=O)NC1CCCCC1 [LOMUSTINE]	Ht	39.5
OCCOCCN1CCN(C(c2ccccc2)c2ccc(Cl)cc2)CC1 (centres undefined) [HYDROXYZINE]	Ht	41

The value of Ht measured for the molecule CC[C@H]1[C@@H]2C[C@H]3[C@@H]4N(C)c5ccccc5[C@]45C[C@@H]([C@@H]2[C@H]5O)N3[C@@H]1O [AJMALINE] turned out to be 39.1

The value of Ht measured for the molecule ClC(Cl)(Cl)Cl [CARBON TETRACHLORIDE] turned out to be 37.3

* * *

The reader will find reported AST values listed item by item below.
# Organism: Rattus norvegicus
# assayNotes: Open TG-GATES - Regimen: Single
# Format: toxicity, organism-based, Sprague-Dawley
# Parameters: regimen Single, gender Male, age 6 weeks
# conditionNotes: in vivo, po, 100 mg/kg, 24 h, tissue Plasma, route gavage, dose level Low
The figure you give is taken to be in IU/L; do not add the unit.

Below, each entry is followed by its recorded AST result.
compound	reportedMetric	experimentalResult
O=NN1CCOCC1	AST	347.6
CN(C)C(=N)N=C(N)N	AST	80.8
CCC1(c2ccccc2)C(=O)NC(=O)NC1=O	AST	70.6

Moving on to another compound below.
The value of AST measured for the compound CN(C)CCC=C1c2ccccc2COc2ccccc21 [DOXEPIN] turned out to be 75.8

* * *

# Organism: Rattus norvegicus
# assayNotes: Open TG-GATES - Regimen: Daily Repeat
# Assay type: toxicity, organism-based, Sprague-Dawley
# Design: regimen Daily Repeat, gender Male, age 6 weeks
# conditionNotes: in vivo, po, 0 mg/kg, […], tissue Blood, route gavage, dose level Control, time 14 day
The reader will find reported Ht values listed item by item below.
The figure you give is taken to be in %; do not add the unit.

Below, each entry is followed by its recorded Ht result.
compound	Ht / %
OCCOCCN1CCN(C(c2ccccc2)c2ccc(Cl)cc2)CC1 (stereo unspecified) [HYDROXYZINE]	41.5
O=NN(CCCl)C(=O)NC1CCCCC1 [LOMUSTINE]	42

The value of Ht measured for the compound CCCCc1oc2ccccc2c1C(=O)c1cc(I)c(OCCN(CC)CC)c(I)c1 [AMIODARONE] turned out to be 41.2

The value of Ht measured for the compound CCC1(c2ccccc2)C(=O)NC(=O)NC1=O [PHENOBARBITAL] turned out to be 44.1

The value of Ht measured for the compound CN(C)C(=N)N=C(N)N [METFORMIN] turned out to be 40.7

The value of Ht measured for the compound CC(C)N(CCC(C(N)=O)(c1ccccc1)c1ccccn1)C(C)C (stereo unspecified) [DISOPYRAMIDE] turned out to be 41.9

The value of Ht measured for the compound CC[C@H]1[C@@H]2C[C@H]3[C@@H]4N(C)c5ccccc5[C@]45C[C@@H]([C@@H]2[C@H]5O)N3[C@@H]1O [AJMALINE] turned out to be 41.6

The value of Ht measured for the compound CN(C)CCC=C1c2ccccc2COc2ccccc21 [DOXEPIN] turned out to be 40.1

* * *

# Species: Rattus norvegicus
# assayNotes: Open TG-GATES - Regimen: Single
# Type: toxicity, organism-based, Sprague-Dawley
# Set-up: regimen Single, gender Male, age 6 weeks
# conditionNotes: in vivo, po, 0 mg/kg, 24 h, tissue Blood, route gavage, dose level Control
reportedMetric: MCV (fL)
The figure you give is taken to be in fL; do not add the unit.

compound	unitOfMeasure	MCV
CC[C@H]1[C@@H]2C[C@H]3[C@@H]4N(C)c5ccccc5[C@]45C[C@@H]([C@@H]2[C@H]5O)N3[C@@H]1O [AJMALINE]	fL	65.4
CCC1(c2ccccc2)C(=O)NC(=O)NC1=O [PHENOBARBITAL]	fL	58.9

Moving on to another compound below.
The value of MCV measured for the compound CC1=C(CC(=O)O)c2cc(F)ccc2/C1=C\c1ccc([S+](C)[O-])cc1 (stereo not given) turned out to be 65.2

Source: ChEMBL document CHEMBL3885861
